Entry source: the supplement of paper PMC10567573

B1: LYSMD4 (parent)
chain: LLQRELAQEDSLNKLALQYGCKVA

Variants of: B1
Assay: protein stability index of a GFP-peptide fusion (GPS, HEK-293T) (PSI 1-6); higher = more stable;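 also: lentivirally expressed fusions sorted by FACS into six bins by GFP to DsRed ratio, PSI derived from sequencing read proportions per bin multiplied by bin number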
Conditions: c terminus: a fixed tail appended
value type: protein stability index

1. DLQRELAQEDSLNKLALQYGCKVA :: 1.96
2. LLQRELAQKDSLNKLALQYGCKVA :: 1.35
3. LLQRELAQEDSLNKLDLQYGCKVA :: 3.12
4. LLQRELAQEDSINKLALQYGCKVA :: 2.06
5. LLQRELWQEDSLNKLALQYGCKVA :: 1.95
6. LLQRELAQEDSLNTLALQYGCKVA :: 1.66
7. LLQRELMQEDSLNKLALQYGCKVA :: 2.77
8. LLQRENAQEDSLNKLALQYGCKVA :: 2.24
9. LLQRFLAQEDSLNKLALQYGCKVA :: 3.86
10. LLQRELAQEDSLKKLALQYGCKVA :: 1.94
11. LLQRELAQEDSLNKLALQYGCKVC :: 3.03
12. LLQRELAQEDSLNKLALNYGCKVA :: 3.62
13. LLQRELAQEDSLNQLALQYGCKVA :: 2.22
14. LHQRELAQEDSLNKLALQYGCKVA :: 1.02
15. LLQRELAQEDSLNKLALQDGCKVA :: 4.57
16. LLQRELAQEDSLNKLAWQYGCKVA :: 2.65
17. LLQRELAQEDSLNKLAGQYGCKVA :: 2.98
18. LLQRELAQEDSLNGLALQYGCKVA :: 2.91
19. LLQRELAQEDSLNYLALQYGCKVA :: 2.06
20. LLSRELAQEDSLNKLALQYGCKVA :: 3.41
21. LLQRELALEDSLNKLALQYGCKVA :: 1.58
22. LLQRELAQEDSLNKLALQYGCKVV :: 3.02
23. LLQRELPQEDSLNKLALQYGCKVA :: 1.97
24. LLQRELAQEDSLNFLALQYGCKVA :: 2.4
25. LLQRELAQEDSLNKLALQYGRKVA :: 2.54
26. LDQRELAQEDSLNKLALQYGCKVA :: 2.63
27. LLQRELAQADSLNKLALQYGCKVA :: 1.53
28. LLQRELAQEDSLNKLAKQYGCKVA :: 2.5
29. LLQRELAQCDSLNKLALQYGCKVA :: 1.53
30. LLQRELCQEDSLNKLALQYGCKVA :: 1.73
31. LLQRELAQEDSLNKDALQYGCKVA :: 4.51
32. LLQREIAQEDSLNKLALQYGCKVA :: 1.52
33. LLQGELAQEDSLNKLALQYGCKVA :: 1.24
34. LLQRELAQEDSLNKLALQIGCKVA :: 1.59
35. LLQRELAQEDSLNKLGLQYGCKVA :: 2.18
36. LLQRELAQEYSLNKLALQYGCKVA :: 1.82
37. LLQRELAPEDSLNKLALQYGCKVA :: 1.48
38. LLQRELAQEDSLNWLALQYGCKVA :: 3.01
